Data provenance is PubChem BioAssay AID328.

# System: BDF1 mice, P388 leukemia ip, median survival T/C
# PROTOCOL TEXT: NCI In Vivo Anticancer Drug Screen. Data for tumor model P388 Leukemia (intraperitoneal) in B6D2F1 (BDF1) mice
# TEST PARAMETERS: endpoint: median survival time; dose: 100.0 mg/kg/injection; schedule: Q01DX009 (ip); vehicle: Klucel (hydroxypropylcellulose) (HPC)
Toxic doses and inconclusive results are not listed. Rule for the calls: active = survival T/C of 150% or more; inactive = T/C below 125% in these data.
Outcome codes: label 1 for active, label 0 for inactive

>  <COMPOUND>
N#CCc1nc2ccccc2[nH]1

>  <LABEL>
label 0

$$$$
>  <COMPOUND>
N#CC(C#N)=Cc1ccc(Cl)c(Cl)c1

>  <LABEL>
label 0

$$$$
>  <COMPOUND>
Clc1cc(Cl)c2c(c1)COCO2

>  <LABEL>
label 0

$$$$
>  <COMPOUND>
CSc1ncnc2c1ncn2CO

>  <LABEL>
label 1

$$$$
>  <COMPOUND>
C[n+]1ccc(Nc2ccc(NC(=O)c3ccc(C(=O)Nc4ccc(Nc5cc[n+](C)c(N)n5)cc4)cc3)cc2)nc1N

>  <LABEL>
label 1

$$$$
>  <COMPOUND>
O=C1NN(CCO)C(=S)Nc2ccccc21

>  <LABEL>
label 0

$$$$
>  <COMPOUND>
COC(=O)C1OC1c1ccccc1 (stereo not drawn)

>  <LABEL>
label 0

$$$$
>  <COMPOUND>
O=S1(=O)CCN(C2CCCCCC2)CC1

>  <LABEL>
label 0

$$$$
>  <COMPOUND>
O=C(O)CCSc1ccccc1

>  <LABEL>
label 0

$$$$
>  <COMPOUND>
COc1ccc(/C=C2\CCC3C(CCCC34OCCO4)C2=O)cc1 (stereo not drawn)

>  <LABEL>
label 0

$$$$
>  <COMPOUND>
CCOC(=O)C(C)NC(=O)N(C)C12CC3CC(CC(C3)C1)C2 (stereo not drawn)

>  <LABEL>
label 0

$$$$
>  <COMPOUND>
CC(C)(C)c1cc(CO)cc(C(C)(C)C)c1O

>  <LABEL>
label 0

$$$$
>  <COMPOUND>
CCCCCCC(=O)NC1=C(N2CC2)C(=O)C(NC(=O)CCCCCC)=C(N2CC2)C1=O

>  <LABEL>
label 1

$$$$
>  <COMPOUND>
O=C1C(c2ccccc2)=S=C2Sc3ccccc3N12

>  <LABEL>
label 0

$$$$
>  <COMPOUND>
C=CCN(CC=C)c1ccccc1

>  <LABEL>
label 0

$$$$
>  <COMPOUND>
CCOC(=O)C1CN(c2ccccc2)C(=O)C1=O (stereo not drawn)

>  <LABEL>
label 0

$$$$
>  <COMPOUND>
C[C@]12CC[C@@H]3c4ccc(O)cc4CC[C@H]3[C@@H]1CCC(=O)O2

>  <LABEL>
label 0

$$$$
>  <COMPOUND>
CCOC(=O)CC(=Nc1ccccc1OC)C(=O)OCC

>  <LABEL>
label 0

$$$$

* * *

# System: BDF1 mice, P388 leukemia ip, median survival T/C
# PROTOCOL TEXT: NCI In Vivo Anticancer Drug Screen. Data for tumor model P388 Leukemia (intraperitoneal) in B6D2F1 (BDF1) mice
# TEST PARAMETERS: endpoint: median survival time; dose: 12.5 mg/kg/injection; schedule: Q04DX003 (ip); vehicle: saline; higher = longer survival
Inconclusive results and toxic doses are left out.
MEASURED QUANTITY: T/C

>  <COMPOUND>
C[n+]1cccc(NC(=O)c2ccc(NC(=O)c3ccc(C(=O)Nc4ccc(NC(=N)N)cc4)cc3)cc2)c1

>  <MEASURED QUANTITY>
T/C

>  <OBS VALUE>
235 % of control

$$$$
>  <COMPOUND>
Cc1cc([N+](=O)[O-])cc(C)c1OC(=O)c1ccc(N=C(N)N)cc1

>  <MEASURED QUANTITY>
T/C

>  <OBS VALUE>
104 % of control

$$$$
>  <COMPOUND>
CC1=C(Br)C(=O)C(c2c(C)cc(C)cc2C)=C(Br)C1=O

>  <MEASURED QUANTITY>
T/C

>  <OBS VALUE>
104 % of control

$$$$
>  <COMPOUND>
NC(CO)CSCc1ccccc1 (stereo not drawn)

>  <MEASURED QUANTITY>
T/C

>  <OBS VALUE>
114 % of control

$$$$
>  <COMPOUND>
COCCOC1=C(N2CC2)C(=O)C(OCCOC)=C(N2CC2)C1=O

>  <MEASURED QUANTITY>
T/C

>  <OBS VALUE>
118 % of control

$$$$
>  <COMPOUND>
OCCN1CCN(CCCN2c3ccccc3Sc3ccc(C(F)(F)F)cc32)CC1

>  <MEASURED QUANTITY>
T/C

>  <OBS VALUE>
105 % of control

$$$$
>  <COMPOUND>
C[N+]1=C2CCCC2=C(N)CC1

>  <MEASURED QUANTITY>
T/C

>  <OBS VALUE>
95 % of control

$$$$
>  <COMPOUND>
NC(=O)NNC(N)=O

>  <MEASURED QUANTITY>
T/C

>  <OBS VALUE>
105 % of control

$$$$
